Overview of recorded mass density for various compounds
Conditions: 333.15 K; 100 kPa; Liquid; Vibrating tube method
Hi! Could you send only the number? It should be in kg/m3, unit omitted.

Answered examples (3):
[
  {
    "molecule": "CCC1CCCCC1",
    "mass density, kg/m3": 755.35
  },
  {
    "molecule": "CC1CCCCC1",
    "mass density, kg/m3": 734.29
  },
  {
    "molecule": "CCCCC1CCCCC1",
    "mass density, kg/m3": 769.09
  }
]

# context switch: different compound, same mass density
Prompt: For the compound CC(C)CC(C)(C)C , what mass density is on record?
Completion: 658.2

---

Conditions: 308.15 K, Drop volume
experimental_endpoint: surface tension liquid-gas (mN/m)
Give just the numeric value; mN/m need not be written.

[
  {
    "molecule": "CCC1CCCCC1",
    "uom": "mN/m",
    "surface tension liquid-gas": 23.74
  },
  {
    "molecule": "CCCCC1CCCCC1",
    "uom": "mN/m",
    "surface tension liquid-gas": 24.73
  },
  {
    "molecule": "CC(C)CC(C)(C)C",
    "uom": "mN/m",
    "surface tension liquid-gas": 17.58
  }
]

Next, consider the following compound.
Prompt: # input compound: CC1CCCCC1 ; wanted: its surface tension liquid-gas
Completion: 22.12

---

Details: 298.15 K; 100 kPa; Liquid; Vibrating tube method
experimental_endpoint: mass density (kg/m3)
Report the value in kg/m3 with no unit label.

[
  {
    "molecule": "CCCCC1CCCCC1",
    "experimental_endpoint": "mass density",
    "result_value": 795.63
  },
  {
    "molecule": "CC(C)CC(C)(C)C",
    "experimental_endpoint": "mass density",
    "result_value": 687.82
  },
  {
    "molecule": "CCC1CCCCC1",
    "experimental_endpoint": "mass density",
    "result_value": 783.97
  }
]

Continue with the compound presented below.
Prompt: Can you look up the measured mass density of CC1CCCCC1 for me?
Completion: 765.05

---

Conditions: 323.15 K; 100 kPa; Liquid; Concentric cylinders viscometry
Parameter viscosity: see the listing below.
The response must be a number in mPa·s with no trailing unit.

[
  {
    "compound": "CC1CCCCC1 [methylcyclohexane]",
    "viscosity / mPa·s": 0.522
  },
  {
    "compound": "CCCCC1CCCCC1 [butylcyclohexane]",
    "viscosity / mPa·s": 0.844
  },
  {
    "compound": "CCC1CCCCC1 [ethylcyclohexane]",
    "viscosity / mPa·s": 0.597
  }
]

Attention now shifts to the item below.
Prompt: Please give the measured viscosity for this compound: CC(C)CC(C)(C)C [2,2,4-trimethylpentane]
Completion: 0.398

---

Collected viscosity values appear next to each entry.
Settings: 318.15 K; 100 kPa; Liquid; Concentric cylinders viscometry
Numbers after ± are expanded uncertainties.
Write the numeric value and follow it with the unit.

These solved cases illustrate the format of a correct answer.
[
  {
    "molecule": "CC1CCCCC1",
    "viscosity": "0.549 ± 0.088 mPa·s"
  },
  {
    "molecule": "CCC1CCCCC1",
    "viscosity": "0.628 ± 0.1 mPa·s"
  },
  {
    "molecule": "CCCCC1CCCCC1",
    "viscosity": "0.9 ± 0.14 mPa·s"
  }
]

Prompt: Any idea what its viscosity is? The compound is CC(C)CC(C)(C)C
Completion: 0.414 ± 0.066 mPa·s
